# maps each entry to its Ki
Assay protocol: Compound was evaluated for inhibition of vasopressin-stimulated adenylate cyclase in human medullary preparation
Numbered stars: 1 amine (or outer) side, 2 acyl side, 3 side chain; on linkers, the order of the positions; unused ones are H or OH. Bridge positions count the residues as written; N and C are the ends. Square brackets hold non-standard residues; d marks the D form. Peptide text beside a SMILES is read from it. X1 = O=C(CC1(S[*:2])CCCCC1)[*:1]
Could you give me the number in nM? Just the number is fine.

CCOc1ccc(C[C@H]2NC(=O)CC3(CCCCC3)SSC[C@@H](C(=O)N3CCC[C@H]3C(=O)N[C@@H](CCCN=C(N)N)C(=O)NCC(N)=O)NC(=O)[C@H](CC(N)=O)NC(=O)[C@H](C(C)C)NC(=O)[C@H](Cc3ccccc3)NC2=O)cc1 ([dY](Et)FVNCPRG-NH2; linker N-5 via X1); 4.6

Now look at this one.
Query string: Ki for CCOc1ccc(C[C@@H]2NC(=O)CC3(CCC(C)CC3)SSC[C@H](C(=O)N[C@@H](CCCN=C(N)N)C(=O)N[C@@H](CCCN=C(N)N)C(N)=O)NC(=O)[C@H](CC(N)=O)NC(=O)[C@H](C(C)C)NC(=O)[C@H](Cc3ccccc3)NC2=O)cc1 (some centres not stated) ?
Result string: 3.9

----------
Tested on: Canis familiaris
Assay protocol: Compound was tested for the maximum urine osmolality with a dose of 100 ug/kg compound in dog.
Format: ADME, organism-based, Canis lupus familiaris
Stated conditions: in vivo, 0.1 mg/kg
Numbered stars: 1 amine (or outer) side, 2 acyl side, 3 side chain; on linkers, the order of the positions; unused ones are H or OH. Bridge positions count the residues as written; N and C are the ends. Square brackets hold non-standard residues; d marks the D form. Peptide text beside a SMILES is read from it. X1 = O=C(CC1(S[*:2])CCCCC1)[*:1]
Property: Max Uosm; scope: individual molecules

CCOc1ccc(C[C@@H]2NC(=O)CC3(CCC(C)CC3)SSC[C@H](C(=O)N[C@@H](CCCN=C(N)N)C(=O)N[C@@H](CCCN=C(N)N)C(N)=O)NC(=O)[C@H](CC(N)=O)NC(=O)[C@H](C(C)C)NC(=O)[C@H](Cc3ccccc3)NC2=O)cc1 (stereo partly specified); 103 mOsmol kg-1
CCOc1ccc(C[C@H]2NC(=O)CC3(CCC(C)CC3)SSC[C@@H](C(=O)N3CCC[C@H]3C(=O)N[C@@H](CCCNC(=N)N)C(N)=O)NC(=O)[C@H](CC(N)=O)NC(=O)[C@H](C(C)C)NC(=O)[C@H](Cc3ccccc3)NC2=O)cc1 (stereo in doubt; 3); 613 mOsmol kg-1
CCOc1ccc(C[C@H]2NC(=O)CC3(CCCCC3)SSC[C@@H](C(=O)N3CCC[C@H]3C(=O)N[C@@H](CCCN=C(N)N)C(=O)NCC(N)=O)NC(=O)[C@H](CC(N)=O)NC(=O)[C@H](C(C)C)NC(=O)[C@H](Cc3ccccc3)NC2=O)cc1 ([dY](Et)FVNCPRG-NH2; linker N-5 via X1); 1216 mOsmol kg-1
CCOc1ccc(C[C@H]2NC(=O)CC3(CCCCC3)SSC[C@@H](C(=O)N3CCC[C@H]3C(=O)N[C@@H](CCCNC(=N)N)C(N)=O)NC(=O)[C@H](CC(N)=O)NC(=O)[C@H](C(C)C)NC(=O)[C@H](Cc3ccccc3)NC2=O)cc1 ([dY](Et)FVNCPR-NH2; linker N-5 via X1); 1625 mOsmol kg-1
CCOc1ccc(C[C@@H]2NC(=O)CC3(CCCCC3)SSC[C@H](C(=O)N[C@@H](CCCN=C(N)N)C(=O)N[C@@H](CCCN=C(N)N)C(N)=O)NC(=O)[C@@H](CC(N)=O)NC(=O)[C@H](C(C)C)NC(=O)[C@@H](Cc3ccccc3)NC2=O)cc1; 469 mOsmol kg-1

Query string: Any idea what Max Uosm was measured for CCOc1ccc(C[C@H]2NC(=O)CC3(CCC(C)CC3)SSC[C@@H](C(=O)N3CCC[C@H]3C(=O)N[C@@H](CCCN=C(N)N)C(=O)NCC(N)=O)NC(=O)[C@H](CC(N)=O)NC(=O)[C@H](C(C)C)NC(=O)[C@H](Cc3ccccc3)NC2=O)cc1 (stereo partly specified) ?
Result string: 85 mOsmol kg-1

----------
The following compounds are shown together with reported Ki values.
Assay protocol: Compound was evaluated for inhibition of vasopressin-stimulated adenylate cyclase in human medullary preparation
Numbered stars: 1 amine (or outer) side, 2 acyl side, 3 side chain; on linkers, the order of the positions; unused ones are H or OH. Bridge positions count the residues as written; N and C are the ends. Square brackets hold non-standard residues; d marks the D form. Peptide text beside a SMILES is read from it. X1 = O=C(CC1(S[*:2])CCCCC1)[*:1]
Only the number, expressed in nM, is required.

Some entries whose results are on file:
CCOc1ccc(C[C@H]2NC(=O)CC3(CCCCC3)SSC[C@@H](C(=O)N3CCC[C@H]3C(=O)N[C@@H](CCCNC(=N)N)C(N)=O)NC(=O)[C@H](CC(N)=O)NC(=O)[C@H](C(C)C)NC(=O)[C@H](Cc3ccccc3)NC2=O)cc1 ([dY](Et)FVNCPR-NH2; linker N-5 via X1); 3.6
CCOc1ccc(C[C@H]2NC(=O)CC3(CCC(C)CC3)SSC[C@@H](C(=O)N3CCC[C@H]3C(=O)N[C@@H](CCCN=C(N)N)C(=O)NCC(N)=O)NC(=O)[C@H](CC(N)=O)NC(=O)[C@H](C(C)C)NC(=O)[C@H](Cc3ccccc3)NC2=O)cc1 (stereo partly drawn); 4.3

Query string: Give the measured Ki of CCOc1ccc(C[C@@H]2NC(=O)CC3(CCCCC3)SSC[C@H](C(=O)N[C@@H](CCCN=C(N)N)C(=O)N[C@@H](CCCN=C(N)N)C(N)=O)NC(=O)[C@@H](CC(N)=O)NC(=O)[C@H](C(C)C)NC(=O)[C@@H](Cc3ccccc3)NC2=O)cc1 .
Result string: 4.5

Each recorded value in this set is attributed to ChEMBL document CHEMBL1124672.
